STUDY TARGET: Cytochrome P450 3A4 (Homo sapiens, UniProt P08684)
Sequence (P08684 whole entry): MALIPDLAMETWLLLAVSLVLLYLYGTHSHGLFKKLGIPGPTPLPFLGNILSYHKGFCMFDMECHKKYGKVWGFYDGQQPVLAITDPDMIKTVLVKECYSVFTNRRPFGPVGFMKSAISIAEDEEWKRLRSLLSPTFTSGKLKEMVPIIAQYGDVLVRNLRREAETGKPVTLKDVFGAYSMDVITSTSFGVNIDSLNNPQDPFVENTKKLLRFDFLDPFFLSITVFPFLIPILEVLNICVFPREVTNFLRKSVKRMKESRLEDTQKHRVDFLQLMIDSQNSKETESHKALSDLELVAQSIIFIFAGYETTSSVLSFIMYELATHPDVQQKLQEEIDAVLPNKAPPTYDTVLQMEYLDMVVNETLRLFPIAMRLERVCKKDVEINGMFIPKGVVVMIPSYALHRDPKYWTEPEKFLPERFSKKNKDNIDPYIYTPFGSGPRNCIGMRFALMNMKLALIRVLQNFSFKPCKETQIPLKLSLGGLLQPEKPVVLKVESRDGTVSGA
ENDPOINT NAME: pIC50
Please report pIC50 as the negative decimal logarithm of the molar concentration, giving only the number.

**Query** May I ask what pIC50 has been recorded for CC(=O)N1CCN(CC(O)CN2CCN(CCc3c(-c4cc(C)cc(C)c4)[nH]c4sc(C(C)(C)C(=O)N5C6CCC5CC6)cc34)CC2)CC1 (stereo unspecified) ?
**Result** 5.22

* * *

ASSAY DETAILS: Plasma clearance in rat
Type: ADME, organism-based
ENDPOINT NAME: clearance (mL/min/kg)
Write the number in mL/min/kg without appending the unit.

**Query** Value lookup for clearance; key = COC1CCN(C(=O)C2CCN(CCc3c(-c4cc(C)cc(C)c4)[nH]c4sc(C(C)(C)C(=O)N5C6CCC5CC6)cc34)CC2)CC1
**Result** 0.1

**Query** Try this molecule too: Cc1cc(C)cc(-c2[nH]c3sc(C(C)(C)C(=O)N4C5CCC4CC5)cc3c2CCN2CCC(C(=O)N3CCOCC3)CC2)c1
**Result** 4

**Query** Same question for Cc1cc(C)cc(-c2[nH]c3sc(C(C)(C)C(=O)N4C5CCC4CC5)cc3c2CCN2CCN(CC(=O)N3CCOCC3)CC2)c1 please.
**Result** 153

**Query** Entry COC1CCN(C(=O)C2CCN(CCc3c(-c4cc(C)cc(C)c4)[nH]c4sc(C(C)(C)C(=O)N5C6CCC5CC6)cc34)CC2)C1 (stereo not given) please
**Result** 0.8

**Query** Do the same for Cc1cc(C)cc(-c2[nH]c3sc(C(C)(C)C(=O)N4C5CCC4CC5)cc3c2CCN2CCC(C(=O)N3CCCC(O)C3)CC2)c1 (stereo not given) please
**Result** 1.3
